src = PubChem BioAssay (NCI)

- Tested on: SK-MEL-2 melanoma
- ASSAY NAME: NCI-60 one-dose screen, 48 h (100 = growth as untreated, 0 = no growth, -100 = all killed)
- CONDITION CONTEXT: 10 µM unless noted
Compounds without any hit were thinned out: in the full panel of roughly 83,000, 20% have a hit.
Reported values of growth for individual entries
Response body: numeric value in %, unit text excluded.

Examples with their reported growth follow.
>  <COMPOUND>
O=c1c(/C=C/c2ccco2)nnc2sc(Nc3ccc(Cl)cc3)nn12

>  <growth, %>
95.6

$$$$
>  <COMPOUND>
COC(=O)c1nc(-c2ccccc2)oc1S(=O)(=O)N(C)CCO

>  <growth, %>
82.1

$$$$
>  <COMPOUND>
C=C1CCC2C3(C)COC(c4ccc(NC(C)=O)cc4)OC3CCC2(C)C1C/C=C1/C(=O)OCC1O (stereo not given)

>  <growth, %>
84.4

$$$$
>  <COMPOUND>
Cc1ccc(C(=O)N(CCCN)[C@@H](c2nc3cc(Cl)ccc3c(=O)n2Cc2ccccc2)C(C)C)cc1

>  <growth, %>
-43

$$$$
>  <COMPOUND>
C=CCNC(=O)Cc1c(-c2ccc(OC)cc2)oc2c(OC)c3c(c(OC)c12)OCO3

>  <growth, %>
108

$$$$
>  <COMPOUND>
Cn1cc(-c2csc(-c3cn(CCOC(N)=O)c4ccccc34)n2)c2cccnc21

>  <growth, %>
84.8

$$$$

Incoming: API: value(readout=growth, system=SK-MEL-2 melanoma) for record `C=C(CN1CC=CCC1)[C@@H]1CC[C@]2(COC(C)=O)CC[C@]3(C)[C@H](CC[C@@H]4[C@@]5(C)CC[C@H](O)C(C)(C)[C@@H]5CC[C@]43C)[C@@H]12`
Outgoing: 104

Incoming: Recall the recorded growth for `c1ccc(-c2cc(-c3cc(-c4ccccc4)on3)no2)cc1` with SK-MEL-2 melanoma and state it.
Outgoing: 20.5

Incoming: Provide the documented growth with SK-MEL-2 melanoma as the system for `CCOC(=O)c1cc2c(n1Cc1cc(OC)cc(OC)c1Br)-c1nc(NC(C)=O)sc1CCC2`
Outgoing: 82.6
